- study.conditions: in methanol, 323.15 K
value.type: solubility (mole fraction)

Query: solubility (mole fraction); subject: O=Cc1cc(Br)c(O)c(Br)c1
Reply: 0.00689

----------
- study.conditions: in cyclohexane, 303.15 K
value.type: solubility (mole fraction)
One number for each entry.

Query: For the molecule shown here, O=Cc1cc(Br)c(O)c(Br)c1 , give the reported solubility (mole fraction).
Reply: 0.000637

----------
- study.conditions: in isobutanol, 303.15 K
value.type: solubility (mole fraction)
Give bare numbers.

Query: Query (compound): O=Cc1cc(Br)c(O)c(Br)c1 ; field requested: solubility (mole fraction)
Reply: 0.00762

----------
- study.conditions: in acetonitrile, 283.15 K
value.type: solubility (mole fraction)

Query: Fill blank: measured solubility (mole fraction) of the molecule O=Cc1cc(Br)c(O)c(Br)c1 is ____.
Reply: 0.00233
